Biological target: T1, BIRC2-BIR3 domain (260-352) (human, UniProt Q13490 260-352)
T1 construct: BIR3 domain of human BIRC2 (cIAP1), residues 260-352; The expression tag was cleaved with TEV protease; also called BIR3 domain of BIRC2; not shown: His6, N-terminal, cleaved; GST, N-terminal, cleaved
T1 sequence (Q13490 260-352): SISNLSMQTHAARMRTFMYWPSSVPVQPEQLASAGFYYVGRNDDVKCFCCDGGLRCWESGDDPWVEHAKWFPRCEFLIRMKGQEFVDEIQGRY
Test: fluorescence polarisation; BIRC2-BIR3 titrated from 40 uM to 600 pM into 30 nM FAM-labelled SMAC probe; 50 mM HEPES pH 7.5, 150 mM NaCl, 5% glycerol, 1 mM TCEP, 0.05% TWEEN20; 1 h at room temperature
Settings: both partners purified
value.type: Kd (nM)
Response body: numeric value in nM, unit text excluded.

Entry AVPIAQKSEKK (5-FAM on the C-terminal lysine (K(5-FAM)); C-terminal amide (NH2), two lysines that follow the SMAC stretch; the last one carries 5-FAM; Probably a synthetic peptide; also called fluorescent SMAC mimetic; tracer) [fluorescently labeled SMAC probe (AVPIAQKSEK-K(5-FAM)-NH2)] has what Kd? 14.9
